Where do the numbers come from? From the Kinase Knowledgebase extract (Sharma et al. 2016).

Target: MAPK14 (human) (UniProt Q16539)
Sequence (Q16539 whole entry, looked up): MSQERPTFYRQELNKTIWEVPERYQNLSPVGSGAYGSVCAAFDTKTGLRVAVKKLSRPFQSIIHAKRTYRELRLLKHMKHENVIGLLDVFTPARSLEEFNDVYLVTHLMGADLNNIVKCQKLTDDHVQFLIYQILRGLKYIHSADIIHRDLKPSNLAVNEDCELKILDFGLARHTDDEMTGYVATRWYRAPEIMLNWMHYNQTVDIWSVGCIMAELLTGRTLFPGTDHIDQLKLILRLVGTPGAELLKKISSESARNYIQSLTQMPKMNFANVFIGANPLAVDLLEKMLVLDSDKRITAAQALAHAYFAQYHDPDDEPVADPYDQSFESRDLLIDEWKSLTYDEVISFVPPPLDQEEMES
Assay: Inhibition of LPS Stimulated TNF Production by U937 Cells
Conditions: concentration not given here
property label: inhibition (%)

These recorded examples may help you get a feel for the data.
C[C@@H](NS(=O)(=O)c1ccc(S(=O)(=O)c2ccccc2)s1)c1[nH]nc(-c2ccc(F)cc2)c1-c1ccncc1	88
Cc1cccc(OC(=O)c2ccc(NC(=O)Cn3nc(-c4ccc(F)cc4)c(-c4ccncc4)c3C)cc2)c1	7
O=C(NCc1[nH]nc(-c2ccc(F)cc2)c1-c1ccncc1)c1cnc2ccccc2n1	14

(A) C[C@@H](NS(=O)(=O)c1cccc(Cl)c1Cl)c1[nH]nc(-c2ccc(F)cc2)c1-c1ccncc1
(B) CN(C)c1cccc2c(S(=O)(=O)NCCc3[nH]nc(-c4ccc(F)cc4)c3-c3ccncc3)cccc12
Inquiry: Between the two listed entries A and B , which has its inhibition at the higher number? I would appreciate it if you answered with the label of your choice.
Reply text: A
(A: 83%, B: 28%)

(I) C[C@@H](NS(=O)(=O)c1cccc(C(F)(F)F)c1)c1[nH]nc(-c2ccc(F)cc2)c1-c1ccncc1
(II) COc1ccc(OC)c(S(=O)(=O)NCCc2[nH]nc(-c3ccc(F)cc3)c2-c2ccncc2)c1
Inquiry: I need your help: which of the pair I , II has higher inhibition? Answer format: the label of the selected item.
Reply text: I

###

Target: MAPK14 (human)
Test: Inhibition of LPS Stimulated TNF Production by U937 Cells
Conditions: concentration not given here
property label: inhibition (%)

(1) O=C(NCCc1[nH]nc(-c2ccc(F)cc2)c1-c1ccncc1)N1CCCC1
(2) COc1ccc(CC(=O)N[C@@H](C)c2[nH]nc(-c3ccc(F)cc3)c2-c2ccncc2)cc1
Inquiry: Dear colleague, could you let me know whether 1 or 2 has the lower recorded inhibition? Thanks. Mark your selection by writing its label.
Reply text: 2

(1) CC[C@H](NC(=O)Cn1nc(-c2ccc(F)cc2)c(-c2ccncc2)c1C)c1ccccc1
(2) CC1(C)[C@H]2CC[C@@]1(CS(=O)(=O)NCc1[nH]nc(-c3ccc(F)cc3)c1-c1ccncc1)C(=O)C2
Inquiry: Please indicate which entry, 1 or 2 , has the lower recorded inhibition value. Mark your answer with the label of the selected entry.
Reply text: 2
(2: 20%, 1: 35%)

###

Entries and their IC50 values follow.
Target: MAPK14 (human) (UniProt Q16539)
Test: Inhibition of LPS Stimulated TNF Production by U937 Cells

O=S(=O)(c1ccc(F)c(F)c1)N1CCC(c2[nH]nc(-c3ccc(F)cc3)c2-c2ccncc2)CC1	> 1 µM
CC(C)C(=O)N[C@H](Cc1ccccc1)c1[nH]nc(-c2ccc(F)cc2)c1-c1ccncc1	> 1 µM
CN(C)CCCNC(=O)NCCCc1[nH]nc(-c2ccc(F)cc2)c1-c1ccncc1	> 1 µM

Inquiry: Find the recorded IC50 belonging to CC(C)=CC(=O)N[C@H](Cc1ccccc1)c1[nH]nc(-c2ccc(F)cc2)c1-c1ccncc1 and report it.
Reply text: > 1 µM

Inquiry: I'd like to know its IC50. The compound in question is CN(C)CCn1cc(-c2ccnc(N(C)C)c2)c(-c2ccc(F)cc2)n1
Reply text: > 10 µM

###

Molecular target: MAPK14 (human) (UniProt Q16539)
Experiment: Inhibition of MAPK14 Kinase Activity by PHAS-I Assay
Details: concentration not given here
property label: inhibition (%)

O=S(=O)(/C=C/c1ccccc1)NCCCc1[nH]nc(-c2ccc(F)cc2)c1-c1ccncc1	69
CC(=O)OC(C)(C)C(=O)NCCCc1[nH]nc(-c2ccc(F)cc2)c1-c1ccncc1	74
CN(C(=O)NCCCc1[nH]nc(-c2ccc(F)cc2)c1-c1ccncc1)c1ccccc1	76
Cc1c(-c2ccncc2)c(-c2ccc(F)cc2)nn1CC(=O)N(C)Cc1ccccc1	73
CCC(C(=O)NCc1[nH]nc(-c2ccc(F)cc2)c1-c1ccncc1)c1ccccc1 (centres undefined)	94
Cc1c(-c2ccncc2)c(-c2ccc(F)cc2)nn1CC(=O)Nc1ccccc1Cl	90
O=C(NCCCc1[nH]nc(-c2ccc(F)cc2)c1-c1ccncc1)c1cnc2ccccc2n1	68
CNC(=O)NCCc1[nH]nc(-c2ccc(F)cc2)c1-c1ccncc1	68
O=C(NCCCc1[nH]nc(-c2ccc(F)cc2)c1-c1ccncc1)[C@H]1CCCN1	81
CC(C)c1ccccc1NC(=O)NCCc1[nH]nc(-c2ccc(F)cc2)c1-c1ccncc1	80
Cc1c(-c2ccncc2)c(-c2ccc(F)cc2)nn1CC(=O)Nc1ccc(-n2ccc(C(F)(F)F)n2)cc1	87
O=S(=O)(NCc1[nH]nc(-c2ccc(F)cc2)c1-c1ccncc1)c1cc(Cl)c(Cl)s1	78
CC(C)COC(=O)NCCc1[nH]nc(-c2ccc(F)cc2)c1-c1ccncc1	75
O=C(NCCCc1[nH]nc(-c2ccc(F)cc2)c1-c1ccncc1)C1CC1	77

###

Target: MAPK14 (human) (UniProt Q16539)
Assay: Inhibition of LPS Stimulated TNF Production by U937 Cells
Settings: concentration not given here
property label: inhibition (%)

CC(C)c1ccccc1NC(=O)NCCc1[nH]nc(-c2ccc(F)cc2)c1-c1ccncc1	29
CCOC(=O)C(CC(C)C)NC(=O)C(=O)NCCc1[nH]nc(-c2ccc(F)cc2)c1-c1ccncc1 (stereo unspecified)	26
Cc1c(Cl)cccc1S(=O)(=O)N[C@H](C)c1[nH]nc(-c2ccc(F)cc2)c1-c1ccncc1	71
O=S(=O)(/C=C/c1ccccc1)NCCCc1[nH]nc(-c2ccc(F)cc2)c1-c1ccncc1	65

(I) COC(=O)NCc1[nH]nc(-c2ccc(F)cc2)c1-c1ccncc1
(II) CCN(CC)C(=O)Cn1nc(-c2ccc(F)cc2)c(-c2ccncc2)c1C
(III) COCCN(Cc1cccc(OC)c1)C(=O)Cn1nc(-c2ccc(F)cc2)c(-c2ccncc2)c1C
(IV) O=S(=O)(c1ccc(-c2ccon2)s1)N1CCC(c2[nH]nc(-c3ccc(F)cc3)c2-c2ccncc2)CC1
Inquiry: Rank descending by inhibition. Respond with the label ranking, as requested.
Reply text: I, II, III, IV

(P) C[C@H](NC(=O)N(C)c1ccccc1)c1[nH]nc(-c2ccc(F)cc2)c1-c1ccncc1
(Q) CCCCCc1cccc(C(C)NC(=O)Cn2nc(-c3ccc(F)cc3)c(-c3ccncc3)c2C)c1 (stereo unspecified)
Inquiry: Returns: the label, P or Q , whose recorded inhibition is the lower number. Kindly give the label for the entry you pick.
Reply text: Q

(1) CCN(CC)C(=O)NCc1[nH]nc(-c2ccc(F)cc2)c1-c1ccncc1
(2) CCCCCCCCS(=O)(=O)NCc1[nH]nc(-c2ccc(F)cc2)c1-c1ccncc1
Inquiry: Among 1 and 2 , which shows a numerically higher inhibition result? Identify your selection by its label.
Reply text: 1

###

Target: MAPK14 (human)
Assay: Inhibition of LPS Stimulated TNF Production by U937 Cells
Settings: concentration not given here
property label: inhibition (%)

O=S(=O)(c1ccccc1C(F)(F)F)N1CCC(c2[nH]nc(-c3ccc(F)cc3)c2-c2ccncc2)CC1	29
O=C(NCc1[nH]nc(-c2ccc(F)cc2)c1-c1ccncc1)[C@@H]1CCCN1C(=O)C(F)(F)F	52
O=C(NCCc1[nH]nc(-c2ccc(F)cc2)c1-c1ccncc1)c1ccccn1	34
COc1cccc(C(=O)N[C@H](Cc2ccccc2)c2[nH]nc(-c3ccc(F)cc3)c2-c2ccncc2)c1	38
